# MRGPRX2 (Agonist) percent activity per entry
- measured.target: MRGPRX2 (Homo sapiens, UniProt Q96LB1)
- Sequence (Q96LB1 whole entry): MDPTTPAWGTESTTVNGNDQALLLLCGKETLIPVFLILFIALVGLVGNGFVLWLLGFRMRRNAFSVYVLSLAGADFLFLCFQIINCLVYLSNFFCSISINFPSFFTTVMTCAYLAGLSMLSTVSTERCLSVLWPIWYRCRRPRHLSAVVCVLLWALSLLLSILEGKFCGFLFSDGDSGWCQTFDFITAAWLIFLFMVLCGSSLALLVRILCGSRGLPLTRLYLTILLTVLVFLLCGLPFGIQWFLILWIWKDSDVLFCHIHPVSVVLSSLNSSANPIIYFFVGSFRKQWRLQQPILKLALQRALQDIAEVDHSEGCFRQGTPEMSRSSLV
- test.name: GPCR reactivity screen, PathHunter β-Arrestin, agonist assay MRGPRX2; note: test concentration or dose not given here
- Type: cell-based
- condition: agonist mode; control cortistatin 14
Write the value in % as a bare number.

// below: answered compounds
input: Tell me the measured MRGPRX2 (Agonist) percent activity of CCCCCc1cc2c(c(O)c1C(=O)O)C=CC(C)(CCC=C(C)C)O2 (stereo not shown) [CBCA, cannabichromenic acid] , please.
output: 4

input: Could you do the same for CCCCCc1cc(O)c(C/C=C(\C)CCC=C(C)C)c(O)c1 [CBG, cannabigerol] , please?
output: 2

input: Could you do the same for C=C(C)[C@@H]1CCC(C)=C[C@H]1c1c(O)cc(C)cc1O [CBD-C1, cannabidiorcol] , please?
output: 1

input: Could you do the same for C=C(C)[C@@H]1CCC(C)=C[C@H]1c1c(O)cc(CCC)c(C(=O)O)c1O [CBDVA, cannabidivarinic acid] , please?
output: 5

input: Could you do the same for CCCCCc1cc(O)c2c(c1)OC(C)(CCC=C(C)C)C=C2 (stereo not shown) [CBC, cannabichromene] , please?
output: 9

Next:
input: Tell me the measured MRGPRX2 (Agonist) percent activity of CCCCc1cc(O)c(C/C=C(\C)CCC=C(C)C)c(O)c1C(=O)O [CBGA-C4, cannabigerolic acid butyl] , please.
output: −1

input: Could you do the same for CCCCCc1cc(O)c(C/C=C(\C)CCC=C(C)C)c(O)c1C(=O)O [CBGA, cannabigerolic acid] , please?
output: 0

input: Could you do the same for CCCCCc1cc(O)c2c(c1)OC1(C)CCC3C1C2C3(C)C (stereo not shown) [CBL, cannabicyclol] , please?
output: 11

input: Could you do the same for CCCCCc1cc(O)c2c(c1)OC(C)(C)c1ccc(C)cc1-2 [CBN, cannabinol] , please?
output: 22

input: Could you do the same for CCCc1cc(O)c(C/C=C(\C)CCC=C(C)C)c(O)c1 [CBGV, cannabigerivarin] , please?
output: 1

Just for reference, patent US20230000936A1 is where these values come from.
